System: Setaria
Experiment Notes: Herbicidal action before plant emergence (pre-emergence action)
Assay type: in vivo
Parameters: key: 1=complete damage; 9=no effect; Score figures of 1 to 4 (in particular 1 to 3) signify a good to very good herbicidal action
Measurement Conditions: 2000 g a.i./ha sprayed immediately after sowing; evaluated after 3 weeks; nine-level key (1=complete damage, 9=no effect)
Below is a list of entries, each paired with its recorded Pre-emergence action, score, test plant Setaria value.
Returns: the value as a bare number; no unit string appended.

Worked cases, Pre-emergence action, score, test plant Setaria given:
>>> reported("Cn1c(C(F)(F)F)cc(=O)n(-c2nc(OCc3ccccc3)c(Cl)cc2F)c1=O")
1
>>> reported("C=CCOc1cc(F)c(-n2c(=O)cc(C(F)(F)F)n(C)c2=O)nc1Cl")
4
>>> reported("Cn1c(C(F)(F)F)cc(=O)n(-c2nc(OCC(F)(F)F)c(Cl)cc2F)c1=O")
1
>>> reported("COc1nc(-n2c(=O)cc(C(F)(F)F)n(C)c2=O)c(F)cc1Cl")
1

Here is another molecule to look at.
Name the value of Pre-emergence action, score, test plant Setaria reported for C=CCOC(=O)C(C)(C)Oc1nc(-n2c(=O)cc(C(F)(F)F)n(C)c2=O)c(F)cc1Cl when tested on Setaria.
1

====

Pre-emergence action, score, test plant Setaria for assorted molecules
Tested on: Setaria
Experiment Notes: Herbicidal action before plant emergence (pre-emergence action)
Assay type: in vivo
Design: key: 1=complete damage; 9=no effect; Score figures of 1 to 4 (in particular 1 to 3) signify a good to very good herbicidal action
Measurement Conditions: 2000 g a.i./ha sprayed immediately after sowing; evaluated after 3 weeks; nine-level key (1=complete damage, 9=no effect)
Give the figure by itself; no unit, no explanation.

>>> reported("Cn1c(C(F)(F)F)cc(=O)n(-c2nc(OCC(N)=O)c(Cl)cc2F)c1=O")
1
>>> reported("C=CCOc1nc(-n2c(=O)cc(C(F)(F)F)n(C)c2=O)c(F)cc1Cl")
1
>>> reported("Cn1c(C(F)(F)F)cc(=O)n(-c2nc(O)c(Cl)cc2F)c1=O")
1
>>> reported("CCCOc1nc(-n2c(=O)cc(C(F)(F)F)n(C)c2=O)c(F)cc1Cl")
1
>>> reported("COC(=O)C(C)Oc1cc(F)c(-n2c(=O)cc(C(F)(F)F)n(C)c2=O)nc1Cl (centres unmarked)")
4

Supply measured Pre-emergence action, score, test plant Setaria of CSC(=O)COc1cc(F)c(-n2c(=O)cc(C(F)(F)F)n(C)c2=O)nc1Cl in your reply.
2

Fill in reported Pre-emergence action, score, test plant Setaria for this entry: COC(=O)C(C)Oc1nc(-n2c(=O)cc(C(F)(F)F)n(C)c2=O)c(F)cc1Cl (centres unmarked)
1

Check the records and state Pre-emergence action, score, test plant Setaria for CCOc1nc(-n2c(=O)cc(C(F)(F)F)n(C)c2=O)c(F)cc1Cl
1

====

Tested on: Ipomoea
Experiment Notes: Post-emergence herbicidal action
Format: in vivo
Set-up: key: 1=complete damage; 9=no effect; Score figures of 1 to 4 (in particular 1 to 3) signify a good to very good herbicidal action
Measurement Conditions: dose 2000 g a.i./ha; sprayed at 4- to 6-leaf stage; evaluated after approximately 18 days; nine-level key (1=complete damage, 9=no effect)
Experimental Readout: Post-emergence action, score, Ipomoea
Answer with the value's number alone.

>>> reported("CCOC(=O)COc1nc(-n2c(=O)cc(C(F)(F)F)n(C)c2=O)c(F)cc1Cl [1.047]")
1
>>> reported("Cn1c(C(F)(F)F)cc(=O)n(-c2nc(OCC(F)(F)F)c(Cl)cc2F)c1=O [1.365]")
1
>>> reported("Cn1c(C(F)(F)F)cc(=O)n(-c2nc(OCOCc3ccccc3)c(Cl)cc2F)c1=O [1.025]")
1

Identify measured Post-emergence action, score, Ipomoea corresponding to C#CCOc1nc(-n2c(=O)cc(C(F)(F)F)n(C)c2=O)c(F)cc1Cl [1.022]
1

Give the reported Post-emergence action, score, Ipomoea for this molecule. CCOc1cc(F)c(-n2c(=O)cc(C(F)(F)F)n(C)c2=O)nc1Cl [500.004]
3

Determine from records and report Post-emergence action, score, Ipomoea for C=CCOC(=O)C(C)(C)Oc1nc(-n2c(=O)cc(C(F)(F)F)n(C)c2=O)c(F)cc1Cl [1.402]
1

Input Cn1c(C(F)(F)F)cc(=O)n(-c2nc(O)c(Cl)cc2F)c1=O [1.002] , output reported Post-emergence action, score, Ipomoea.
1

Report Post-emergence action, score, Ipomoea, nothing else, for this molecule: COC(=O)C(C)Oc1cc(F)c(-n2c(=O)cc(C(F)(F)F)n(C)c2=O)nc1Cl (stereo not drawn) [500.029]
1

Give Post-emergence action, score, Ipomoea for CCCOc1nc(-n2c(=O)cc(C(F)(F)F)n(C)c2=O)c(F)cc1Cl [1.367]
1

====

In this section we review reported Post-emergence action, score, Stellaria values for a set of compounds.
System: Stellaria
Experiment Notes: Post-emergence herbicidal action
Type: in vivo
Set-up: key: 1=complete damage; 9=no effect; Score figures of 1 to 4 (in particular 1 to 3) signify a good to very good herbicidal action
Measurement Conditions: dose 2000 g a.i./ha; sprayed at 4- to 6-leaf stage; evaluated after approximately 18 days; nine-level key (1=complete damage, 9=no effect)

Previously resolved entries follow.
>>> reported("COc1nc(-n2c(=O)cc(C(F)(F)F)n(C)c2=O)c(F)cc1Cl")
1
>>> reported("Cn1c(C(F)(F)F)cc(=O)n(-c2nc(Cl)c(Cl)cc2F)c1=O")
3
>>> reported("CCOC(=O)COc1nc(-n2c(=O)cc(C(F)(F)F)n(C)c2=O)c(F)cc1Cl")
4
>>> reported("Cn1c(C(F)(F)F)cc(=O)n(-c2nc(OCc3ccccc3)c(Cl)cc2F)c1=O")
3

Give me measured Post-emergence action, score, Stellaria, please, for this compound: Cn1c(C(F)(F)F)cc(=O)n(-c2nc(OCC(N)=O)c(Cl)cc2F)c1=O
1

Look up Post-emergence action, score, Stellaria of Cn1c(C(F)(F)F)cc(=O)n(-c2nc(OCC#N)c(Cl)cc2F)c1=O and report it.
1

====

Test system: Setaria
Experiment Notes: Herbicidal action before plant emergence (pre-emergence action)
Format: in vivo
Design: key: 1=complete damage; 9=no effect; Score figures of 1 to 4 (in particular 1 to 3) signify a good to very good herbicidal action
Measurement Conditions: 2000 g a.i./ha sprayed immediately after sowing; evaluated after 3 weeks; nine-level key (1=complete damage, 9=no effect)
This listing pairs compounds with measured Pre-emergence action, score, test plant Setaria.

Example cases with answers are listed next.
>>> reported("Cn1c(C(F)(F)F)cc(=O)n(-c2nc(OCC#N)c(Cl)cc2F)c1=O [1.363]")
1
>>> reported("Cn1c(C(F)(F)F)cc(=O)n(-c2nc(OCOCc3ccccc3)c(Cl)cc2F)c1=O [1.025]")
1
>>> reported("C#CCOc1nc(-n2c(=O)cc(C(F)(F)F)n(C)c2=O)c(F)cc1Cl [1.022]")
1
>>> reported("CCOC(=O)COc1nc(-n2c(=O)cc(C(F)(F)F)n(C)c2=O)c(F)cc1Cl [1.047]")
1
>>> reported("Cn1c(C(F)(F)F)cc(=O)n(-c2nc(Cl)c(Cl)cc2F)c1=O [1.396]")
1

Return the recorded Pre-emergence action, score, test plant Setaria value; entry: COC(=O)C(Oc1cc(Cl)c(-n2c(=O)cc(C(F)(F)F)n(C)c2=O)nc1Cl)c1ccccc1 (stereo not drawn) [500.144]
2
